Please provide measured MIC for the entries that follow.
Tested on: Escherichia coli JR66/W677
Experiment: microbe, parasite or virus in culture
Assay type: cell-based
Details: resistance mechanism APH(3')-II, ANT(2"), Mueller-Hinton agar, 37° C
Answers are plain numbers, in µg/mL.

// each compound listed below needs its MIC
1. NCC[C@H](O)C(=O)N[C@@H]1C[C@H](N)[C@@H](O[C@H]2O[C@H](CN)[C@@H](O)[C@H](O)[C@H]2O)C(F)(F)[C@H]1O[C@H]1O[C@H](CO)[C@@H](O)[C@H](N)[C@H]1O
2. CN[C@@H]1[C@@H](O)[C@@H](O[C@H]2[C@H](N)C[C@H](N)[C@@H](O[C@H]3O[C@H]([C@@H](C)NC)CC[C@H]3N)C2(F)F)OC[C@]1(C)O
3. NC[C@@H]1CC[C@@H](N)[C@@H](O[C@@H]2[C@@H](N)C[C@@H](N)[C@H](O[C@H]3O[C@H](CO)[C@@H](O)[C@H](N)[C@H]3O)C2(F)F)O1
4. CCN[C@@H]1C[C@H](N)[C@@H](O[C@H]2OC(CN)=CC[C@H]2N)[C@H](O)[C@H]1O[C@H]1OC[C@](C)(O)[C@H](NC)[C@H]1O [Netilmicin, netilmicin, reference compound]
5. CCN[C@@H]1C[C@H](N)[C@@H](O[C@H]2OC(CN)=CC[C@H]2N)C(F)(F)[C@H]1O[C@H]1OC[C@](C)(O)[C@H](NC)[C@H]1O
6. NCC[C@H](O)C(=O)N[C@@H]1C[C@H](N)[C@@H](O[C@H]2O[C@H](CN)[C@@H](O)C[C@H]2N)C(F)(F)[C@H]1O[C@H]1O[C@H](CO)[C@@H](O)[C@H](N)[C@H]1O

Given back:
1: 3.12; 2: 0.78; 3: 1.56; 4: 0.39; 5: 0.78; 6: 0.39

====

System: Escherichia coli K-12 ML 1629
Assay: microbe, parasite or virus in culture
Type: cell-based
Settings: K12ML1629; Escherichia coli K-12 ML 1629; resistance mechanism APH(3')-I; Mueller-Hinton agar, 37° C; read-out: MIC
value-kind: MIC

Previously resolved entries follow.
compound | MIC
NCC[C@H](O)C(=O)N[C@@H]1C[C@H](N)[C@@H](O[C@H]2O[C@H](CN)CC[C@H]2N)[C@H](F)[C@H]1O[C@H]1O[C@H](CO)[C@@H](O)[C@H](N)[C@H]1O [Compound 5F-DKB-AHB, reference compound] | 0.39 µg/mL
CN[C@@H]1[C@@H](O)[C@@H](O[C@@H]2[C@@H](O)[C@H](O[C@H]3O[C@H]([C@@H](C)NC)CC[C@H]3N)[C@@H](N)C[C@H]2N)OC[C@]1(C)O [Genta-C1, gentamicin C1, reference compound] | 0.39 µg/mL
NCC[C@H](O)C(=O)N[C@@H]1C[C@H](N)[C@@H](O[C@H]2O[C@H](CN)[C@@H](O)[C@H](O)[C@H]2O)C(F)(F)[C@H]1O[C@H]1O[C@H](CO)[C@@H](O)[C@H](N)[C@H]1O | 3.12 µg/mL
NC[C@H]1O[C@H](O[C@H]2[C@H](O)[C@@H](O[C@H]3O[C@H](CO)[C@@H](O)[C@H](N)[C@H]3O)[C@H](N)C[C@@H]2N)[C@H](N)[C@@H](O)[C@@H]1O [KMB, kanamycin B, reference compound] | > 100 µg/mL

Now for a further compound.
Asked: MIC lookup needed for `CN[C@@H]1[C@@H](O)[C@@H](O[C@H]2[C@H](N)C[C@H](N)[C@@H](O[C@H]3O[C@H](CN)CC[C@H]3N)C2(F)F)OC[C@]1(C)O` , thanks.
Given back: 0.39 µg/mL

The origin of these recorded values is patent US5527781A.
